So I've got a bunch of compounds here, and I need their EC50 values.
- experimental-target: Growth hormone secretagogue receptor type 1 (Homo sapiens, UniProt Q92847)
- Sequence (Q92847 whole entry): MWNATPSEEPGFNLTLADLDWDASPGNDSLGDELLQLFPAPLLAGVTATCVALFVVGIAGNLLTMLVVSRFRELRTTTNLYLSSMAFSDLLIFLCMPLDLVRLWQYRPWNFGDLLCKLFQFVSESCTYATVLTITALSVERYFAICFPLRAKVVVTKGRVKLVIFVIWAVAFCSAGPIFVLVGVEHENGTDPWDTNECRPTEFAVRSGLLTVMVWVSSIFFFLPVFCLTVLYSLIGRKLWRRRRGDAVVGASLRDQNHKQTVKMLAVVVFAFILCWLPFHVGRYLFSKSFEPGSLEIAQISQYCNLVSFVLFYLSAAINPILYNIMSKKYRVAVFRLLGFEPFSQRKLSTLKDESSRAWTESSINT
- experiment: Functional potency measured as intracellular calcium elevation in Hek-293 cells expressing hGHSR1a
Residues, ends and D or L forms follow the SMILES beside them. *: point of attachment. Octanoyl = CCCCCCCC(=O)*
Respond with the bare value in nM.

Lab note: CCCCCCCC(=O)OC[C@@H](NC(=O)[C@@H](N)CO)C(=O)N1CCC2(CC1)CN(S(C)(=O)=O)c1ccccc12 gave EC50 of 432

Lab note: CCCCCCCC(=O)OC[C@@H](NC(=O)[C@H](CO)NC(=O)CN)C(=O)N1CCC2(CC1)CN(S(C)(=O)=O)c1ccccc12 gave EC50 of 68.2

Lab note: CCCCCCCC(=O)OC[C@@H](NC(=O)C(C)(C)N)C(=O)N1CCC2(CC1)CN(S(C)(=O)=O)c1ccccc12 gave EC50 of 19.6

Lab note: CCCCCCCC(=O)OC[C@H](NC(=O)[C@H](CO)NC(=O)CN)C(=O)N1CCC2(CC1)CN(S(C)(=O)=O)c1ccccc12 gave EC50 of 448

Lab note: CS(=O)(=O)N1CC2(CCN(C(=O)[C@@H](COCc3ccccc3)NC(=O)[C@@H](N)CO)CC2)c2ccccc21 gave EC50 of 69.2

Lab note: CCCCCCCC(=O)OC[C@H](NC(=O)CN)C(=O)N[C@@H](CO)C(=O)N[C@@H](Cc1ccccc1)C(=O)O (H-GS(Octanoyl)SF-OH) gave EC50 of 72

Lab note: CCCCCCCC(=O)OC[C@H](NC(=O)C(C)(C)N)C(=O)N1CCC2(CC1)CN(S(C)(=O)=O)c1ccccc12 gave EC50 of 378

Lab note: CS(=O)(=O)N1CC2(CCN(C(=O)[C@@H](COCc3ccccc3)NC(=O)[C@H](CO)NC(=O)CN)CC2)c2ccccc21 gave EC50 of 7.95
